- Test system: 786-0 renal
- measurement protocol: NCI tumour cell line growth inhibition, 48 h
Measured TGI, listed per entry for reference.

compound	measurement target	TGI
COC(=O)[C@@]1(Cc2ccc(O)cc2)C[C@@H]2Cc3ccccc3N2N1	786-0 renal	> 100 µM
O=C(Nc1nc(C23CC4CC(CC(C4)C2)C3)cs1)c1cc2cc(Cl)ccc2oc1=O	786-0 renal	> 100 µM
COc1cccc(NC(=O)C(C)(C)C)c1SSc1c(NC(=O)C(C)(C)C)cccc1OC	786-0 renal	53.1 µM
O=c1oc2ccccc2c(O)c1/C=N/C(=S)NCc1ccccc1	786-0 renal	> 100 µM
N#Cc1cc([N+](=O)[O-])ccc1NC(=O)C(F)(F)F	786-0 renal	> 89.5 µM
Cc1c(-c2ccccc2)c(C#N)c2nnn(C3CCCCC3)c(=O)n12	786-0 renal	> 100 µM
CCOC(=O)/C(N=Nc1ccc(-n2c(C)nc3ccc(Br)cc3c2=O)cc1)=C(/C)O	786-0 renal	> 100 µM
O=c1c2cccc(F)c2sc2c(N3CCNCC3)nc3ccccc3c12	786-0 renal	3.28 µM
COc1cc(/C=C2\Oc3cc(OCCCN4CCCC4)ccc3C2=O)cc(OC)c1	786-0 renal	14.5 µM
CSCC[C@H](NC(=O)[C@H](CC(C)C)NC(=O)[C@@H](Cc1ccccc1)NC(=O)CNC(=O)[C@@H](NC(=O)[C@H](C)NC(=O)[C@H](Cc1c[nH]c2ccccc12)NC(=O)[C@H](CCC(N)=O)NC(=O)[C@H](N)CC(N)=O)C(C)C)C(N)=O	786-0 renal	> 12.5 µM
c1ccc(Nc2nc(-c3ccccn3)cs2)nc1	786-0 renal	> 38.2 µM
COc1cc2nc(-c3ccc(Cl)cc3)cc(OCCCN3CCCC3)c2cc1OC	786-0 renal	12.1 µM
CC(=O)OC12c3ccccc3-c3ccccc3C1C(C(=O)O)C2(Cl)C(=O)O (stereo unspecified)	786-0 renal	> 10 µM
O=c1c2ccccc2nc2n1C(c1ccc([N+](=O)[O-])cc1)C2(c1ccccc1)c1ccccc1 (stereo unspecified)	786-0 renal	> 100 µM
O=C(N=Nc1c(O)[nH]c2ccccc12)c1oc2ccccc2c1CN1CCN(c2ccccc2)CC1	786-0 renal	1.84 µM
OC(c1cc2ccccc2[nH]1)C1(c2cccnc2)SCCCS1 (stereo unspecified)	786-0 renal	> 100 µM

---

Measured TGI, listed per entry for reference.
- Test system: OVCAR-5 ovarian
- measurement protocol: NCI tumour cell line growth inhibition, 48 h
readout name: TGI

smiles notation	readout name	test value
COC(=O)c1ccc2c(c1)C(=O)c1c-2n(C)c(=O)c2cc(OC)c(OC)cc12	TGI	> 50 µM
Cc1[nH]c(C(=O)Nc2ccccc2OC2CCNCC2)c(Cl)c1Cl	TGI	4.32 µM
O=[N+]1ON=C(c2ccccc2)C1=C1C(c2c(-c3ccccc3)no[n+]2[O-])=NON1[O-]	TGI	> 100 µM
COC(=O)NC(=Nc1ccc(Oc2ccccc2)cc1NC=O)NC(=O)OC	TGI	> 100 µM
N#CCOc1ccc(/C=C/C(=O)c2ccc(Cl)cc2)cc1	TGI	> 100 µM
COc1cc(/C=C/c2nc(N)nnc2C)cc(OC)c1OC	TGI	> 58.9 µM

---

Measured TGI, listed per entry for reference.
- Tested on: HCC-2998 colon
- measurement protocol: NCI tumour cell line growth inhibition, 48 h

molecule	value comparator	TGI, µM
O=C(/C=C/c1ccccc1Cl)c1cccc2ccccc12	=	27.9
CCCCCCC/C=C/[C@H]1O[C@]2(O)C(=O)C=C3C[C@@H](O[C@@H]4O[C@H](CO)[C@@H](O)C(O)[C@@H]4O)C[C@@H]3[C@H]2C=C1C (some centres undefined)	=	9.82
Cc1nc2c(cc1C(=O)N/N=C/c1ccc([N+](=O)[O-])cc1)c(=O)n(C)c(=O)n2C	>	100
COC(=O)/C=C(/C(=O)OC)c1cc2ccc3c([nH]c4ccccc43)c(C)c-2c1	=	13
C[N+](C)(C)/N=C/c1ccc(O)c(O)c1	>	100
COC(=O)C1=CC2CC1C(S(=O)(=O)c1ccccc1)C2S(=O)(=O)c1ccccc1 (centres undefined)	=	34.4
N#CCCN(CCC#N)c1ccc(C(N=Nc2ccccc2)=Nc2ccc(Cl)cc2)cc1	>	100
CC(=O)OC1CC2(C)OC(Cc3ccccc32)O1 (centres undefined)	>	100
NC(=O)c1ncn(CCN2CCN(C(=O)NCCCCCCNC(=O)N3CCN(CCn4cnc(C(N)=O)c4N)CC3)CC2)c1N	>	100

---

- Tested on: HCT-116 colon
- measurement protocol: NCI tumour cell line growth inhibition, 48 h; in the data active = GI50 below about 0.43 µM; inactive = the rest
Classes used: active, inactive

compound	class assignment
O=C(NNc1ccc(F)cc1)C1CCC(CNS(=O)(=O)c2ccc(Cl)c(Cl)c2)CC1 (centres undefined)	inactive
CC(=O)c1ccc(Nc2nc(Nc3ccc(F)cc3)nc(Nc3ccc(F)cc3)n2)cc1	inactive
O=C(c1ccco1)c1c(C(F)(F)F)nc2ccc(C(F)(F)F)cc2[n+]1[O-]	inactive
Nc1ccccc1NC(=O)c1ccc(CN2CCC/C(=C\c3ccccn3)C2=O)cc1	active
CCN(Cc1ccccc1Cl)c1ccc(CO)c(Cl)c1	active
Clc1nc(Cl)c2c3c(sc2n1)CCCC3	inactive
O=[N+]([O-])c1ccc(Sc2nc(Cl)nc(NC3CCCC3)n2)cc1	inactive
COc1ccc(-c2nc(Nc3ccc(-c4nc5ccccc5[nH]4)cc3)nc(N3CCOCC3)n2)cc1	inactive
C=C1CC[C@@H]2[C@](C)(COC(C)=O)[C@H](OC(C)=O)CC[C@@]2(C)[C@@H]1CC(Nc1ccc(S(=O)(=O)Nc2cc(C)on2)cc1)C1=CCOC1=O (some centres undefined)	inactive

---

- System: HCT-15 colon
- measurement protocol: NCI tumour cell line growth inhibition, 48 h; in the data active = GI50 below about 0.43 µM; inactive = the rest
Classes used: y for active, n for inactive

compound	class assignment
CC(=O)[CH-]C(=O)c1ccccc1.CC(=O)[CH-]C(=O)c1ccccc1.CC1(C)OCC(C2OC3OC(C)(C)OC3C2[O-])O1.CC1(C)OCC(C2OC3OC(C)(C)OC3C2[O-])O1.[Ti+4] (centres undefined)	n
Fc1ccc(-c2nn3c(-c4cc(C(F)(F)F)cc(C(F)(F)F)c4)nnc3s2)cc1	n
c1ccc(Nc2nc(-c3ccccn3)cs2)nc1	y
CCC(C)[C@H](NC(=O)NC(=O)NC(=O)CI)C(=O)OC (some centres undefined)	n

---

- System: UACC-62 melanoma
- measurement protocol: NCI tumour cell line growth inhibition, 48 h

compound	value comparator	TGI / µM
CN(C)CC1CCC/C(=C\c2ccc(OC(=O)/C=C/c3ccccc3)cc2)C1=O (stereo not given)	=	15.8
COC(=O)c1ccc(NCc2c(O)ccc(O)c2Br)cc1Cl	=	30.3
COc1cccc(CCNc2c(C#N)c3nc4ccccc4n3c3ccccc23)c1	>	100
Nn1c(CCCCCCCCc2nnc(COc3ccccc3)n2N)nnc1COc1ccccc1	>	100
O=C(O)CC1NC(/C(=C/c2ccccc2O)NC(=O)c2ccccc2)OC1=O (stereo not given)	>	100

---

- Tested on: SK-MEL-5 melanoma
- measurement protocol: NCI tumour cell line growth inhibition, 48 h
readout name: TGI

compound	readout name	test value
C=C1CCC2C3(C)COC(c4c(OC)cccc4OC)OC3CCC2(C)C1C/C=C1/C(=O)OCC1O (stereo not given)	TGI	8.57 µM
CCOc1ccc(/C(C=O)=C(\Cl)c2ccc(OC)c(OC)c2)cc1	TGI	> 100 µM
Cc1cccc2nc3cccc(C(=O)NCCNCCNCCNC(=O)c4cccc5nc6cccc(C)c6nc45)c3nc12	TGI	0.851 µM
COc1cc(C(=O)C2C(=O)c3ccccc3C2C2(O)c3ccccc3CC2C(O)c2cc(OC)c(OC)c(OC)c2)cc(OC)c1OC (stereo not given)	TGI	> 100 µM
N=C(N)SCc1cc(Cl)cc(Cl)c1O	TGI	31.9 µM
CC1SC2(CCC(c3ccccc3)CC2)N(NC(=O)c2[nH]c3ccc(F)cc3c2-c2ccccc2)C1=O (stereo not given)	TGI	21.6 µM
CC(=O)OCC1=C(C(=O)O)C(c2ccc3c(c2)OCO3)c2cc3c(cc2O1)OCO3 (stereo not given)	TGI	> 100 µM
Nc1ccccc1NC(=O)c1ccc(CN2CCC/C(=C\c3ccccn3)C2=O)cc1	TGI	3.79 µM
CCN(CC)CCOc1ccc(/C=C2\C[C@H]3[C@H]4CC=C5C[C@@H](O)CC[C@]5(C)[C@H]4CC[C@]3(C)[C@H]2O)cc1OC	TGI	11.1 µM
O=C(CC1(O)C(=O)Nc2ccccc21)c1ccc(F)cc1 (stereo not given)	TGI	> 100 µM
COC(=O)C(C(=O)C(=O)Nc1ccccc1C#N)c1nc2ccc([N+](=O)[O-])cc2[nH]c1=O (stereo not given)	TGI	> 100 µM
CC(=O)c1ccc(Nc2nc(Nc3ccc(F)cc3)nc(Nc3ccc(F)cc3)n2)cc1	TGI	35.8 µM
COc1cc(/C=C2\Oc3cc(OCCCN4CCCC4)ccc3C2=O)cc(OC)c1	TGI	4.6 µM
Cc1cc(=O)n2c3c(c4c(cc13)c(CO)cc(=O)n4C)OC2	TGI	75.3 µM
Clc1cc2c(nn1)Nc1ccccc1S2	TGI	> 100 µM
CN(C)CCC=C1c2ccccc2C(C)(C)c2ccccc21	TGI	5.09 µM
COc1ccc2c(c1)C1OCCNC1CC2 (stereo not given)	TGI	> 100 µM
CCN1C(=O)/C(=C2\SC(c3ccccc3)(c3ccccc3)c3ccccc32)SC1=S	TGI	> 100 µM
Cc1cc(C)n2c(-c3ccccc3)c(C)cc2n1	TGI	> 100 µM
Cc1ccc(C2SCC(=O)N2c2ccc(-c3ccc(-n4c(-c5ccccc5)nc5ccccc5c4=O)cc3)cc2)cc1 (stereo not given)	TGI	> 100 µM
